system: Escherichia coli; test: In vitro antibacterial activity against Escherichia. coli TEM1; format: functional

| molecule | qual | MIC / µg/mL |
| --- | --- | --- |
| C[C@@H](O)[C@H]1C(=O)N2C(C(=O)O)=C(COC(N)=O)S[C@H]12 [RITIPENEM] | = | 1 |
| CCCCOC(=O)CN(C)CC1=C(C(=O)O)N2C(=O)[C@H]([C@@H](C)O)C2S1 (some centres not stated) | > | 32 |
| C[C@@H](O)[C@H]1C(=O)N2C(C(=O)O)=C(CN(C)CC(N)=O)SC12 (some centres not stated) | = | 0.25 |
| C[C@@H](O)[C@H]1C(=O)N2C(C(=O)O)=C(SCCNC=N)C[C@H]12 [IMIPENEM ANHYDROUS] | = | 0.25 |
| C[C@@H](O)[C@H]1C(=O)N2C(C(=O)O)=C(CSC(=S)N(C)CC(N)=O)SC12 (some centres not stated) | = | 8 |
| CC1(C)S[C@@H]2[C@H](NC(=O)[C@H](N)c3ccccc3)C(=O)N2[C@H]1C(=O)O.CC1(C)[C@H](C(=O)O)N2C(=O)C[C@H]2S1(=O)=O | > | 32 |
| C[C@@H](O)[C@H]1C(=O)N2C(C(=O)O)=C(CN(C)CC(=O)N(C)C)SC12 (some centres not stated) | = | 1 |
